Experiment: Hu Mic Clint
Assay type: in vitro ADME, human
PARAMETER: Hu Mic Clint (µL/min/mg)
Write the answer as a number in µL/min/mg, unit excluded.

# get_value(readout='Hu Mic Clint', item= Nc1ncnn2c(C3CCC(CO)OC3)nc(-c3ccc(Oc4ccccc4)cc3F)c12 (single isomer, unassigned) [Compound 9] )
34.3

What do we get for Nc1ncnn2c(C3CCC(CO)OC3)nc(-c3ccc(Oc4ccccc4)cc3F)c12 (single isomer, unassigned) [Compound 8] ?
41.3

What do we get for Nc1ncnn2c(C3CCC(CO)OC3)nc(-c3ccc(Oc4ccccc4)cc3F)c12 (single isomer, unassigned) [Compound 10] ?
7.0

What do we get for Nc1nccn2c(C3CCC(CO)OC3)nc(-c3ccc(Oc4cccc(F)c4F)cc3)c12 (single isomer, unassigned) ?
13.3

What do we get for Nc1nccn2c(C3CCC(CO)OC3)nc(-c3ccc(Oc4ccccc4)cc3F)c12 (single isomer, unassigned) ?
23.7

What do we get for Nc1nccn2c(C3CCC(CO)OC3)nc(-c3ccc(Oc4ccccc4)c(F)c3F)c12 (single isomer, unassigned) ?
13.0

What do we get for Nc1ncnn2c(C3CCC(CO)OC3)nc(-c3ccc(Oc4ccccc4)cc3F)c12 (single isomer, unassigned) [Compound 11] ?
9.3

###

For each record, write down the corresponding Rat Hep Clint.
Test: In vitro rat hepatocytes clearance assay
Format: in vitro ADME
Write the answer as a number in μL/min/10∧6 cells, unit excluded.

# get_value(readout='Rat Hep Clint', item= Nc1nccn2c(C3CCC(CO)OC3)nc(-c3ccc(Oc4ccccc4)cc3)c12 (stereo not shown) )
12.4

What do we get for Nc1ncnn2c(C3CCC(CO)OC3)nc(-c3ccc(Oc4cccc(F)c4F)cc3)c12 (stereo not shown) [Compound 14] ?
9.48

What do we get for Nc1ncnn2c(C3CCC(CO)OC3)nc(-c3ccc(Oc4cccc(F)c4F)cc3)c12 (stereo not shown) [Compound 15] ?
7.9

What do we get for Nc1nccn2c(C3CCC(CO)OC3)nc(-c3ccc(Oc4ccccc4)cc3F)c12 (single isomer, unassigned) [Compound 2] ?
6.1

What do we get for Nc1ncnn2c(C3CCC(CO)OC3)nc(-c3ccc(Oc4ccccc4)c(F)c3F)c12 (stereo not shown) [Compound 13] ?
21.4

What do we get for Nc1ncnn2c(C3CCC(CO)OC3)nc(-c3ccc(Oc4ccccc4)cc3F)c12 (single isomer, unassigned) [Compound 10] ?
17.1

What do we get for Nc1nccn2c(C3CCC(CO)OC3)nc(-c3ccc(Oc4ccccc4)c(F)c3F)c12 (single isomer, unassigned) [Compound 4] ?
7.2

###

Molecular target: p-BTK (Phospho-Btk Tyr223) in TMD-8 cells (Homo sapiens, UniProt Q06187)
Construct: endogenous in cells
Sequence (Q06187 whole entry): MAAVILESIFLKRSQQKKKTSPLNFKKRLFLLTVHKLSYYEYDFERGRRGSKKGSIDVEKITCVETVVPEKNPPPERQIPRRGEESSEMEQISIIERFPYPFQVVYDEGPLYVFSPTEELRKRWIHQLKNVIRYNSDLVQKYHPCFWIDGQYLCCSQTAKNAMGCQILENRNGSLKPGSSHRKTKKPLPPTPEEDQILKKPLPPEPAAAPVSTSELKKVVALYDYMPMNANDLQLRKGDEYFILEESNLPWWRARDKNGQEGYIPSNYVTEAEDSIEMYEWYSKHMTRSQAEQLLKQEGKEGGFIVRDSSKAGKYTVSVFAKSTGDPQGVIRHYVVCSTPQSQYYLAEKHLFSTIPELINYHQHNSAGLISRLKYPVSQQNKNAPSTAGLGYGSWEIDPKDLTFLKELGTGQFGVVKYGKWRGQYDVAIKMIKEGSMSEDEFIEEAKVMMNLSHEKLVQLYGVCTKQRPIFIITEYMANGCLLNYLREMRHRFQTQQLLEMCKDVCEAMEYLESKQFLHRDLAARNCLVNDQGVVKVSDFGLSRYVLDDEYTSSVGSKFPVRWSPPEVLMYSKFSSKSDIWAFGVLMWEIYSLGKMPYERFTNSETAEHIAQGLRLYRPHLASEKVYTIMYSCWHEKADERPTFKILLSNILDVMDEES
Experiment: TMD8 cell line p-BTK Elisa assay
Settings: pervanadate 100 μM, Tyr223 ELISA
For each record, write down the corresponding IC50.
Write the answer as a number in nM, unit excluded.

# get_value(readout='IC50', item= Nc1nccn2c(C3CCC(CO)OC3)nc(-c3ccc(Oc4cccc(F)c4F)cc3)c12 (single isomer, unassigned) [Compound 6] )
26.2

What do we get for Nc1ncnn2c(C3CCC(CO)OC3)nc(-c3ccc(Oc4ccccc4)c(F)c3F)c12 (stereo not shown) [Compound 12] ?
23.2

What do we get for Nc1nccn2c(C3CCC(CO)OC3)nc(-c3ccc(Oc4ccccc4)cc3F)c12 (single isomer, unassigned) [Compound 3] ?
78.4

What do we get for Nc1ncnn2c(C3CCC(CO)OC3)nc(-c3ccc(Oc4cccc(F)c4F)cc3)c12 (stereo not shown) [Compound 14] ?
24.3

What do we get for Nc1ncnn2c(C3CCC(CO)OC3)nc(-c3ccc(Oc4ccccc4)cc3F)c12 (single isomer, unassigned) [Compound 9] ?
124

What do we get for Nc1nccn2c(C3CCC(CO)OC3)nc(-c3ccc(Oc4ccccc4)c(F)c3F)c12 (single isomer, unassigned) [Compound 5] ?
48.7

What do we get for Nc1nccn2c(C3CCC(CO)OC3)nc(-c3ccc(Oc4ccccc4)cc3)c12 (stereo not shown) [Compound 1] ?
18.9

###

For each record, write down the corresponding Maximal Inhibition Level.
Target: p-BTK (Phospho-Btk Tyr223) in TMD-8 cells (Homo sapiens)
Construct: endogenous in cells; host or cells: TMD-8
Test: TMD8 cell line p-BTK Elisa assay
Format: cell-based
Details: p-BTK ELISA
Procedure: The test compounds were added to the cells and cells were incubated for 0.5 hour at 37° C., 5% CO2. Then pervanadate solution was added to the cells to make a final concentration of 100 μM, and cells were incubated for a further 1 hour at 37° C., 5% CO2. […] The plate was read on a Multiscan Spectrum reader set to 450 nm wavelengths.
Write the answer as a number in %, unit excluded.

# get_value(readout='Maximal Inhibition Level', item= Nc1nccn2c(C3CCC(CO)OC3)nc(-c3ccc(Oc4ccccc4)cc3F)c12 (single isomer, unassigned) [Compound 3] )
96.2

What do we get for Nc1nccn2c(C3CCC(CO)OC3)nc(-c3ccc(Oc4ccccc4)cc3F)c12 (single isomer, unassigned) [Compound 2] ?
98.4

What do we get for Nc1nccn2c(C3CCC(CO)OC3)nc(-c3ccc(Oc4cccc(F)c4F)cc3)c12 (single isomer, unassigned) [Compound 7] ?
97.9

What do we get for Nc1ncnn2c(C3CCC(CO)OC3)nc(-c3ccc(Oc4ccccc4)cc3F)c12 (single isomer, unassigned) [Compound 9] ?
107.7

What do we get for Nc1ncnn2c(C3CCC(CO)OC3)nc(-c3ccc(Oc4ccccc4)c(F)c3F)c12 (stereo not shown) ?
97.0

What do we get for Nc1nccn2c(C3CCC(CO)OC3)nc(-c3ccc(Oc4ccccc4)c(F)c3F)c12 (single isomer, unassigned) [Compound 4] ?
97.4

What do we get for Nc1ncnn2c(C3CCC(CO)OC3)nc(-c3ccc(Oc4cccc(F)c4F)cc3)c12 (stereo not shown) ?
98.0

###

For each record, write down the corresponding microsomal CLint.
Test: Hu Mic Clint
Format: in vitro ADME, human
Conditions: human, microsomes
Write the answer as a number in µL/min/mg, unit excluded.

# get_value(readout='microsomal CLint', item= Nc1nccn2c(C3CCC(CO)OC3)nc(-c3ccc(Oc4ccccc4)c(F)c3F)c12 (single isomer, unassigned) )
7.44

What do we get for Nc1nccn2c(C3CCC(CO)OC3)nc(-c3ccc(Oc4ccccc4)cc3F)c12 (single isomer, unassigned) ?
12.7

What do we get for Nc1nccn2c(C3CCC(CO)OC3)nc(-c3ccc(Oc4cccc(F)c4F)cc3)c12 (single isomer, unassigned) ?
8.8

###

Assay: Log D determination (octanol/phosphate buffer)
Format: physicochemical
Conditions: 25° C.
PARAMETER: logD
Please respond with just the number, no unit label.

# get_value(readout='logD', item= Nc1ncnn2c(C3CCC(CO)OC3)nc(-c3ccc(Oc4cccc(F)c4F)cc3)c12 (stereo not shown) )
2.98

What do we get for Nc1ncnn2c(C3CCC(CO)OC3)nc(-c3ccc(Oc4ccccc4)cc3F)c12 (single isomer, unassigned) [Compound 9] ?
3.00

What do we get for Nc1nccn2c(C3CCC(CO)OC3)nc(-c3ccc(Oc4ccccc4)cc3F)c12 (single isomer, unassigned) ?
2.88

What do we get for Nc1ncnn2c(C3CCC(CO)OC3)nc(-c3ccc(Oc4ccccc4)c(F)c3F)c12 (stereo not shown) ?
3.21

###

Test: Hu Mic Clint
Type: in vitro ADME, human
Details: human, microsomes
PARAMETER: microsomal CLint (µL/min/mg)
Write the answer as a number in µL/min/mg, unit excluded.

# get_value(readout='microsomal CLint', item= Nc1nccn2c1c(-c1ccc(Oc3ccccc3)cc1)nc2[C@H]1CC[C@H](CO)CC1 [reference compound] )
141

What do we get for Nc1ncnn2c1c(-c1ccc(Oc3ccccc3)cc1F)nc2[C@H]1CC[C@H](CO)CC1 [reference compound] ?
19.3

What do we get for Nc1nccn2c(C3CCC(CO)OC3)nc(-c3ccc(Oc4ccccc4)cc3)c12 (centres unmarked) ?
44.9

###

For each record, write down the corresponding Rat Hep Clint.
Experiment: In vitro rat hepatocytes clearance assay
Assay type: in vitro ADME
Output should be the measured figure followed by the unit it is expressed in.

# get_value(readout='Rat Hep Clint', item= Nc1ncnn2c(C3CCC(CO)OC3)nc(-c3ccc(Oc4ccccc4)cc3F)c12 (single isomer, unassigned) [Compound 9] )
27.2 μL/min/10∧6 cells

What do we get for Nc1nccn2c(C3CCC(CO)OC3)nc(-c3ccc(Oc4ccccc4)cc3F)c12 (single isomer, unassigned) [Compound 3] ?
8.8 μL/min/10∧6 cells

What do we get for Nc1ncnn2c(C3CCC(CO)OC3)nc(-c3ccc(Oc4ccccc4)c(F)c3F)c12 (stereo not shown) [Compound 12] ?
46.8 μL/min/10∧6 cells

What do we get for Nc1ncnn2c(C3CCC(CO)OC3)nc(-c3ccc(Oc4ccccc4)cc3F)c12 (single isomer, unassigned) [Compound 11] ?
11.7 μL/min/10∧6 cells

What do we get for Nc1nccn2c(C3CCC(CO)OC3)nc(-c3ccc(Oc4cccc(F)c4F)cc3)c12 (single isomer, unassigned) [Compound 7] ?
4.9 μL/min/10∧6 cells

What do we get for Nc1nccn2c1c(-c1ccc(Oc3ccccc3)cc1)nc2[C@H]1CC[C@H](CO)CC1 [reference compound] ?
119.3 μL/min/10∧6 cells

What do we get for Nc1ncnn2c1c(-c1ccc(Oc3ccccc3)cc1F)nc2[C@H]1CC[C@H](CO)CC1 [reference compound] ?
254.9 μL/min/10∧6 cells
